tested-target: Sodium-dependent dopamine transporter (Homo sapiens)
Sequence (Q01959 whole entry): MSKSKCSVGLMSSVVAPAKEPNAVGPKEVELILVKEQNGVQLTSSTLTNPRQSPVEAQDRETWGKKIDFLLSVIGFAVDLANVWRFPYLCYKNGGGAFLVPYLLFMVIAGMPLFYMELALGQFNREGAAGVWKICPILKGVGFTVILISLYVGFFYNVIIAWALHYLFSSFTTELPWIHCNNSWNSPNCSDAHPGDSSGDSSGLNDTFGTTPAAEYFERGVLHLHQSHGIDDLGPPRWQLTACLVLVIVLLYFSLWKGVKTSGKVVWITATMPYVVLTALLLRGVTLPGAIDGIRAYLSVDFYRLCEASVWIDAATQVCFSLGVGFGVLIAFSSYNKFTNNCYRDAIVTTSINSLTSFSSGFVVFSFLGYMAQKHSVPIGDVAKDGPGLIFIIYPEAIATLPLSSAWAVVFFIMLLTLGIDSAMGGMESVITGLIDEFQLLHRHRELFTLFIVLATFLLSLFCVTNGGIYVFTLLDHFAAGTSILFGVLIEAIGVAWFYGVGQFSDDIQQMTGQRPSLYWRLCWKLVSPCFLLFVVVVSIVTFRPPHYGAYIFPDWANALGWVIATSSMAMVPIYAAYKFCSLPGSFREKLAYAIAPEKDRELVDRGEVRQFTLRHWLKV
assay: GPCRScan assay: inhibition of DAT
Parameters: radioligand conc. used [nm] 3.6 – 16.0, parental cells stable HEK
reported-conditions: read-out: Ki
measured-property: Ki (µM)
Kindly provide the numeric value in µM only, without the unit symbol.

O=C1NCCCC1N1Cc2cc(C3CCN(C(=O)CCCCCN4CCC(c5ccc(Oc6nn7cnnc7c7c6CCCC7)cc5)CC4)CC3)ccc2C1=O (configuration not stated)    4.81

*Q* Quick check: Ki of O=C1CCC(N2Cc3cc(C4CCN(C(=O)CCCCCN5CCC(c6ccc(Oc7nn8cnnc8c8c7CCCC8)cc6)CC5)CC4)ccc3C2=O)C(=O)N1 (configuration not stated) ?
*A* 3.73
